target: P53 (Homo sapiens); assay: SPR; type: binding
Sequence (P04637 94-312): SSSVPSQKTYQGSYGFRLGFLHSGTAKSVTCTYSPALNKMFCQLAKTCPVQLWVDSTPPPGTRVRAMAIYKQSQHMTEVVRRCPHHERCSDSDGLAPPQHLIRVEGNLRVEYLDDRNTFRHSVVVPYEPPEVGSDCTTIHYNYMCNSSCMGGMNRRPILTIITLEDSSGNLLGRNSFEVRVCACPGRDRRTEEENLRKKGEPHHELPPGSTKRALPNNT
recorded.metric: pKd
// returns pKd (minus log10 of molar concentration), number only

Return pKd (reported value) for this compound: CC(C)=CCC[C@](C)(O)[C@H]1CC[C@]2(C)[C@@H]1[C@H](O)C[C@@H]1[C@@]3(C)CC[C@H](O)C(C)(C)[C@@H]3CC[C@]12C [20(S)-PPD]
4.39

Value source: paper PMC7332671
